Ref: patent US8664214B2

target: human mGlu2 receptor (Homo sapiens); construct: V5/His (named only as part of the vector); assay: FLIPR intracellular Ca2+ assay, potentiation of 1 μM glutamate in HEK293 cells expressing hmGlu2, rGLAST and Galpha16; conditions: HEK293 hmGlu2 clone
pEC50: −log10 of the molar value.
Recorded pEC50 for the following molecules

Examples from the recorded data:
molecule="CCCCN1Cc2cc(NCc3cnccc3-c3ccc(C#N)cc3)ccc2C1=O [Example 20]" readout=pEC50 value="> 6.30"
molecule="O=C1c2ccc(OCc3cnccc3-c3ccccc3)cc2CN1CCOC(F)(F)F [Example 7]" readout=pEC50 value="> 6.30"
molecule="CCCCN1Cc2cc(NCc3ccc(Br)nc3Cl)ccc2C1=O [Example 34]" readout=pEC50 value="5.70 to 6.30"
molecule="Cc1cc(-c2ccccc2)c(CNc2cc(Cl)c3c(c2)CN(C2CC2)C3=O)c(C)n1 [Example 23]" readout=pEC50 value="> 6.30"
molecule="CCCCN1Cc2cc(NCc3cnccc3Oc3ccccc3)ccc2C1=O [Example 16]" readout=pEC50 value="> 6.30"

Task: Report measured pEC50; entry is CCCN1Cc2cc(OCc3cnccc3Oc3ccccc3)ccc2C1=O [Example 3]
Result: 5.70 to 6.30

Task: Report measured pEC50; entry is Cc1cc(-c2ccccc2)c(COc2ccc3c(c2)CN(CCOC(F)(F)F)C3=O)c(C)n1 [Example 2]
Result: > 6.30

Task: Report measured pEC50; entry is CCCCN1Cc2cc(NCc3c(C)ccnc3Cl)ccc2C1=O [Example 33]
Result: 5.70 to 6.30

Task: Report measured pEC50; entry is CCCCN1Cc2cc(NCc3cnccc3Nc3ccccc3)ccc2C1=O [Example 19]
Result: 5.70 to 6.30

* * *

target: human mGlu2 receptor (Homo sapiens, UniProt Q14416); construct: V5/His (named only as part of the vector); experiment: FLIPR intracellular Ca2+ assay, potentiation of 1 μM glutamate in HEK293 cells expressing hmGlu2, rGLAST and Galpha16; settings: HEK293 hmGlu2 clone
Sequence (Q14416 19-872): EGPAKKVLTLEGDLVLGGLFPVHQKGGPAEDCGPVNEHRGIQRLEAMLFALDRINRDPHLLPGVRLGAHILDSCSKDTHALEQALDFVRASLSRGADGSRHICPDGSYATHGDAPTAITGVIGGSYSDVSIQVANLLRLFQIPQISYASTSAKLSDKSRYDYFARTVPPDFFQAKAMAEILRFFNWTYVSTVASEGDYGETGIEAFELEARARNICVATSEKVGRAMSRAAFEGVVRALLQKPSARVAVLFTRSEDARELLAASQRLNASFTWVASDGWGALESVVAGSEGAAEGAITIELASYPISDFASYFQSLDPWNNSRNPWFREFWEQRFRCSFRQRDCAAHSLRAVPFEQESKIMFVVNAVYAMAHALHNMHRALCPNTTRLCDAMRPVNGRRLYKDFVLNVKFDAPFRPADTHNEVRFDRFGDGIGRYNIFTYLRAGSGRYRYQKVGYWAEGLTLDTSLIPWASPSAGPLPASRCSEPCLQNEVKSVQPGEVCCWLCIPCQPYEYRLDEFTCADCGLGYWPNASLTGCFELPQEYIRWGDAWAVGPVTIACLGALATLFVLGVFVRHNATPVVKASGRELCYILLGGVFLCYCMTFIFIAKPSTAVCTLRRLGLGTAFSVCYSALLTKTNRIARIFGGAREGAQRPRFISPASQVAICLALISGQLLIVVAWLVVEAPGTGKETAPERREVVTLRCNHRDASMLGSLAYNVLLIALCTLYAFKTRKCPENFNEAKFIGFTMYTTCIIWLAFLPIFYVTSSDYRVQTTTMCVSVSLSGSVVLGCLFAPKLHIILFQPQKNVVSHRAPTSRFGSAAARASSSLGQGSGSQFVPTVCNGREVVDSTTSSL
pEC50: −log10 of the molar value.
readout: pEC50

Examples from the recorded data:
structure_notation=CCCCN1Cc2cc(OCc3c(-c4ccccc4)cc(C)nc3C)ccc2C1=O tested_on="human mGlu2 receptor (Homo sapiens, UniProt Q14416)" value="> 6.30"
structure_notation=CCCCN1Cc2cc(NCc3c(Cl)ccnc3Cl)ccc2C1=O tested_on="human mGlu2 receptor (Homo sapiens, UniProt Q14416)" value="> 6.30"
structure_notation=CCCCN1Cc2cc(NCc3cnccc3NCc3ccccc3)ccc2C1=O tested_on="human mGlu2 receptor (Homo sapiens, UniProt Q14416)" value="5.00 to 5.70"
structure_notation=CCCN1Cc2cc(OCc3cnccc3NC(=O)OC(C)(C)C)ccc2C1=O tested_on="human mGlu2 receptor (Homo sapiens, UniProt Q14416)" value="5.00 to 5.70"
structure_notation=CCCCN1Cc2cc(NCc3cnccc3-c3ccccc3)ccc2C1=O tested_on="human mGlu2 receptor (Homo sapiens, UniProt Q14416)" value="> 6.30"

Task: Report measured pEC50; entry is CCCN1Cc2cc(OCc3cnccc3-c3ccccc3)ccc2C1=O
Result: > 6.30

Task: Report measured pEC50; entry is CCCCN1Cc2cc(NCc3c(C(F)(F)F)ccnc3Cl)ccc2C1=O
Result: > 6.30

Task: Report measured pEC50; entry is CCCCN1Cc2cc(OCc3c(I)ccnc3Cl)ccc2C1=O
Result: > 6.30

Task: Report measured pEC50; entry is Cc1cc(-c2ccccc2)c(COc2ccc3c(c2)CN(CCOC(F)(F)F)C3=O)c(C)[n+]1[O-]
Result: > 6.30

* * *

target: human mGlu2 receptor (Homo sapiens); construct: V5/His (named only as part of the vector); experiment: FLIPR intracellular Ca2+ assay, potentiation of 1 μM glutamate in HEK293 cells expressing hmGlu2, rGLAST and Galpha16; conditions: HEK293 hmGlu2 clone
pEC50: −log10 of the molar value.
readout: pEC50

Task: Report measured pEC50; entry is CCN1Cc2cc(OCc3c(-c4ccccc4)cc(C)nc3C)ccc2C1=O
Result: > 6.30

Task: Report measured pEC50; entry is CCCCN1Cc2cc(NCc3cnccc3N3CCN(C)CC3)ccc2C1=O
Result: 5.00 to 5.70

Task: Report measured pEC50; entry is CCCCN1Cc2cc(NCc3cnccc3-c3ccc(C(F)(F)F)cc3)ccc2C1=O
Result: > 6.30

Task: Report measured pEC50; entry is CCCCN1Cc2cc(OCc3c(-c4ccccc4)ccnc3Cl)ccc2C1=O
Result: > 6.30

Task: Report measured pEC50; entry is CCCCN1Cc2cc(NCc3c(-c4ccccc4)cc(C)nc3C)ccc2C1=O
Result: > 6.30

Task: Report measured pEC50; entry is O=C1c2c(Cl)cc(NCc3c(C(F)(F)F)ccnc3Cl)cc2CN1C1CC1
Result: > 6.30

Task: Report measured pEC50; entry is CCCCN1Cc2cc(NCc3cnccc3N3CCOCC3)ccc2C1=O
Result: 5.70 to 6.30

Task: Report measured pEC50; entry is CCCCN1Cc2cc(NCc3ccc(Cl)nc3OC)ccc2C1=O
Result: 5.70 to 6.30

Task: Report measured pEC50; entry is CCCCN1Cc2cc(NCc3cnccc3C(F)(F)F)ccc2C1=O
Result: > 6.30

* * *

biological target: human mGlu2 receptor (Homo sapiens); construct: V5/His (named only as part of the vector); expressed in transfected cells; host or cells: HEK293; test: FLIPR intracellular Ca2+ assay, potentiation of 1 μM glutamate in HEK293 cells expressing hmGlu2, rGLAST and Galpha16; format: cell-based; conditions: HEK293 hmGlu2 clone
pEC50: −log10 of the molar value.
readout: pEC50

structure_notation=CCCCN1Cc2cc(NCc3cccnc3Cl)ccc2C1=O value="5.00 to 5.70"

Task: Report measured pEC50; entry is CCCCN1Cc2cc(NCc3ccc(OC)nc3Cl)ccc2C1=O
Result: 5.70 to 6.30

Task: Report measured pEC50; entry is CCCCN1Cc2cc(NCc3cccnc3)ccc2C1=O
Result: 5.00 to 5.70

Task: Report measured pEC50; entry is COCCN1Cc2cc(NCc3c(C(F)(F)F)ccnc3Cl)cc(C)c2C1=O
Result: 5.70 to 6.30

Task: Report measured pEC50; entry is CCCCN1Cc2cc(NCc3cnccc3NC(=O)C(C)(C)C)ccc2C1=O
Result: 5.70 to 6.30
